// reported pIC50 for each item listed
Biological target: UniProt Q96SW2
Test: In vitro CRBN binding assay (AlphaScreen, competitive inhibition of the PROTAC assay)
Details: Table 1; AlphaScreen, PROTAC Optimization Kit for BET Bromodomain-Cereblon Binding; read-out: Alpha IC50
# pIC50 is unitless: minus log10 of the molar concentration; print number only

Examples from the recorded data:
molecule	assay.endpoint	value.reported
O=C1CCC(c2ccc3c(c2)OCCN(Cc2ccccc2)C3=O)C(=O)N1 (stereo not drawn)	pIC50	5.38
O=C1CCC(c2cccc(NS(=O)(=O)c3cccc(NC(=O)c4ccc(CCCCCCl)cc4)c3)c2)C(=O)N1 (stereo not drawn)	pIC50	5.73
CCCc1ccc(S(=O)(=O)Nc2cccc(C3CCC(=O)NC3=O)c2)cc1 (stereo not drawn)	pIC50	5.82
COc1cc(C)ccc1CNc1cccc(C2CCC(=O)NC2=O)c1 (stereo not drawn)	pIC50	6.08
Nc1ccc(S(=O)(=O)Nc2cccc(C3CCC(=O)NC3=O)c2)cc1C(F)(F)F (stereo not drawn)	pIC50	5.95

I would be grateful if you could share the reported pIC50 for O=C1CCC(c2cccc(NS(=O)(=O)c3cccc(NC(=O)c4ccccc4C(F)(F)F)c3)c2)C(=O)N1 (stereo not drawn) .
6.14

I would be grateful if you could share the reported pIC50 for O=C1CCC(c2cccc(NS(=O)(=O)c3cccc(NC(=O)C4CCOCC4)c3)c2)C(=O)N1 (stereo not drawn) .
4.92

I would be grateful if you could share the reported pIC50 for O=C1CCC(c2cccc(NS(=O)(=O)c3ccc(Cl)cc3)c2)C(=O)N1 (stereo not drawn) .
6.07

I would be grateful if you could share the reported pIC50 for O=C1CCC(c2cccc(NC(=O)c3ccccc3)c2)C(=O)N1 (stereo not drawn) .
5.66

I would be grateful if you could share the reported pIC50 for Cc1ccc(C(=O)Nc2cccc(S(=O)(=O)Nc3cccc(C4CCC(=O)NC4=O)c3)c2)cc1 (stereo not drawn) .
6.27

I would be grateful if you could share the reported pIC50 for O=C1CCC(c2cccc(NC(=O)c3ccccc3Cl)c2)C(=O)N1 (stereo not drawn) .
6.02

I would be grateful if you could share the reported pIC50 for O=C1CCC(c2cccc(NS(=O)(=O)c3ccc(F)cc3)c2)C(=O)N1 (stereo not drawn) .
5.89

I would be grateful if you could share the reported pIC50 for O=C1CCC(c2cccc(NS(=O)(=O)c3cccs3)c2)C(=O)N1 (stereo not drawn) .
6.51

I would be grateful if you could share the reported pIC50 for O=C1CCC(c2cccc(NS(=O)(=O)c3cccc(NC(=O)c4ccccc4)c3)c2)C(=O)N1 (stereo not drawn) .
6.21

I would be grateful if you could share the reported pIC50 for O=C1CCC(c2cccc(NS(=O)(=O)c3ccc([N+](=O)[O-])c(C(F)(F)F)c3)c2)C(=O)N1 (stereo not drawn) .
6.12
